Field: pIC50. Provide a value for each of the molecules that follow.
Biological target: Mas-related G-protein coupled receptor member X2 (Homo sapiens, UniProt Q96LB1)
Sequence (Q96LB1 whole entry): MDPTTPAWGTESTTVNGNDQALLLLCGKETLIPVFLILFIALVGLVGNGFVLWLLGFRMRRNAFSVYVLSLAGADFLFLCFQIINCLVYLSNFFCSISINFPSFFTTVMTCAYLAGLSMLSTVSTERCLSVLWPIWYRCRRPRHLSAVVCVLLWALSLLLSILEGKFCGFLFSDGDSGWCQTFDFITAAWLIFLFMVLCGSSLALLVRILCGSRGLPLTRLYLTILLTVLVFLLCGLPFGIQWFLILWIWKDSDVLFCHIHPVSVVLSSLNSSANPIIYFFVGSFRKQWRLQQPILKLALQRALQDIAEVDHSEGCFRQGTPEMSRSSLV
Test: Antagonist activity at human MRGPRX2 expressed in HEK293 cells co-expressing mouse Galpha15 assessed as inhibition of Cortistatin-14 induced Ca2+ mobilization preincubated for 30 mins followed by Cortistatin-14 addition by FLIPRtetra-calcium mobilization assay
Type: functional, cell-based
pIC50: −log10 of the molar value.

Recorded pIC50 of CC(C(=O)Nc1ccc(Oc2ccccc2)cn1)N1CCC(F)(F)[C@@H](c2c[nH]c(=O)c(CN)c2)C1 (stereo not given in full) , please.
≥ 8.00

Recorded pIC50 of CC(C(=O)Nc1ccc(Oc2ccc(F)cc2)cn1)N1CCC(F)(F)C(c2c[nH]c(=O)c(CNCCO)c2)C1 (stereo not given) , please.
≥ 8.00

Recorded pIC50 of "C[C@@H](C(=O)Nc1ccc(Oc2ccc(F)cc2F)cn1)N1CCC(F)(F)[C@@H](c2c[nH]c(=O)c(CS(C)(=O)=O)c2)C1" , please.
≥ 8.00

Recorded pIC50 of CC(C(=O)Nc1ccc(Oc2cnc(F)cc2Cl)cn1)N1CCC(F)(F)[C@@H](c2ccc(=O)[nH]c2)C1 (stereo not given in full) , please.
≥ 8.00

Recorded pIC50 of CC(C(=O)Nc1ccc(Oc2ccc(F)cc2)cn1)C1CCC(F)(F)C(c2ccc(=O)[nH]c2)C1 (stereo not given) , please.
≥ 8.00
